Hello, the source for this data is patent US20070219172A1, in case you need it.

target: 11β-HSD1 Dehydrogenase (Rattus norvegicus, UniProt P16232); construct: testicular leydig cell homogenates; from tissue; host or cells: testicular Leydig cell homogenates; test: 11β-HSD1 dehydrogenase inhibition, testicular Leydig cell homogenates; format: biochemical; conditions: result in words
Sequence (P16232 whole entry): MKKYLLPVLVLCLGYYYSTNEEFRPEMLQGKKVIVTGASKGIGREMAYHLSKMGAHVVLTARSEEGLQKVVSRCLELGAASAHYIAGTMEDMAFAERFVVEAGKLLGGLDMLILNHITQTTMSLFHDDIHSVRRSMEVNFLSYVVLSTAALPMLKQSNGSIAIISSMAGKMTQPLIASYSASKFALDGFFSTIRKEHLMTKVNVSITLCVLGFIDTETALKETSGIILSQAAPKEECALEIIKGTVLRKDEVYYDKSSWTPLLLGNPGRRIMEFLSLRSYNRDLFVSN
MEASURED_ENDPOINT: 11β-HSD1 Dehydrogenase inhibition

C[C@]12CC[C@H](O)C[C@@H]1CC[C@H]1[C@@H]3CC[C@H](O)[C@@]3(C)CC(=O)[C@@H]12 [3α,5α-reduced-11-keto-testosterone]
No Inhibition
C[C@@]12CC[C@@H]3[C@H]([C@@H](O)C[C@]4(C=O)[C@@H](C(=O)CO)CC[C@@H]34)[C@@]1(C)CC[C@@H](O)C2 [3α,5α-reduced aldosterone]
Moderate Inhibitor
C[C@]12CC[C@@H](O)C[C@@H]1CC[C@H]1[C@@H]3CC[C@H](C(=O)CO)[C@@]3(C)CC(=O)[C@@H]12
No Inhibition
C[C@]12CC[C@H](O)C[C@H]1CC[C@@H]1[C@@H]2[C@@H](O)C[C@]2(C)C(=O)CC[C@H]12 [3α,5α-reduced-11β-OH-androstenedione]
Moderate Inhibitor
